- Tested on: KM-20L2
- procedure-details: NCI tumour cell line growth inhibition, 48 h
Active and inactive are the calls of the source. Rule as the data show it: active = GI50 up to about 1.1 µM and inactive = higher.
Pick one and only one: Yes for active, No for inactive

Some solved cases for reference:
{"compound": "CC1=C2N3C[C@@H](n4c(=O)n(C)c(=O)n43)C23CCC1n1c(=O)n(C)c(=O)n13", "qualitative-label": "No"}
{"compound": "[N-]=[N+]=N/C1=C/CCCCC(=O)C1", "qualitative-label": "No"}
{"compound": "COc1ccc(C(c2ccccc2)(c2ccc(OC)cc2)N2C(=O)NC3C(CCCCC(=O)NCCCCCCOP(OCCC#N)N(C(C)C)C(C)C)SCC32)cc1 (stereo unspecified)", "qualitative-label": "No"}
{"compound": "Cc1cccc(C(C)(C)C)c1NC(=O)C(C#N)C1=C(Cl)C(=O)c2ccccc2C1=O (stereo unspecified)", "qualitative-label": "No"}
{"compound": "COC(=O)C1=Cc2c(cc(OC)c(OC)c2OC)[C@H](c2ccc(OC)c(OC)c2OC)C1C(=O)OC (stereo partly specified)", "qualitative-label": "No"}

Task: Check the results log: what was the call for Cn1cc2ccccc2c1-c1nc(F)nc(Nc2ccc(N)cc2)n1 ?
Result: No

Task: Also need COc1cc(C(O)C(=O)c2nc3ccc([N+](=O)[O-])cc3nc2O)ccc1O (stereo unspecified) , thanks.
Result: No

Task: Also need C[C@]12CCc3nonc3C1CC[C@@H]1C2CC[C@]2(C)C(=O)CCC12 (stereo partly specified) , thanks.
Result: No

Task: Also need C(=N/NC1=NCCN1)/c1c2ccccc2c(/C=N\NC2=NCCN2)c2ccccc12 , thanks.
Result: Yes

Task: Also need Clc1ccc2ns[s+]c2c1 , thanks.
Result: Yes

Task: Also need C#CCNC(=O)NCCCCC(NC(=O)OCc1ccccc1)C(=O)OCc1ccccc1 (stereo unspecified) , thanks.
Result: No

Task: Also need O=C(CCC(=O)Nc1ccc(Cl)c(Cl)c1)CC(=O)c1ccc2ccccc2c1 , thanks.
Result: No

====

- Tested on: NCI-H23
- procedure-details: NCI tumour cell line growth inhibition, 48 h
Where a name gives a salt, the structure may show the parent alone. Activity calls are given as the source filed them. Rule as the data show it: active = GI50 up to about 1.1 µM and inactive = higher.
measured-parameter: GI50

Check out these entries, answers already filled in.
{"molecule": "CC[C@@]1(O)C(=O)OCc2c1cc1n(c2=O)Cc2cc3c(CN(C)C)c(O)ccc3nc2-1 [TOPOTECAN HYDROCHLORIDE]", "GI50": "0.0217 µM (active)"}
{"molecule": "CN1C(=O)C(=CNc2ccccc2Cl)C(=O)N(C)C1=O", "GI50": "> 100 µM (inactive)"}
{"molecule": "c1ccc(C(=NCCC2CNc3ccccc32)c2ccccc2)cc1 (configuration not stated)", "GI50": "> 100 µM (inactive)"}
{"molecule": "C[C@@H](NC(=O)[C@@H]1C[C@]1(C)CO)c1cccc2ccccc12", "GI50": "> 100 µM (inactive)"}
{"molecule": "CCOC(=O)C1C=C2O[C@@H]3OC4(CCCCC4)O[C@@H]3C2C2C(=O)CCC(=O)[C@@]12C(=O)OC (some centres not stated)", "GI50": "> 100 µM (inactive)"}
{"molecule": "Cc1c(Cl)ccc2c1NC(=O)C2(O)CC(=O)c1ccc2ccccc2c1 (configuration not stated)", "GI50": "28.2 µM (inactive)"}

Task: GET /values?readout=GI50&item= CN/N=C(\C(=O)Nc1ccc([N+](=O)[O-])cc1[N+](=O)[O-])C1NC(=O)NC1=O (configuration not stated)
Result: > 100 µM (inactive)

Task: Also need O=C(CC(C(=O)c1ccsc1)c1cccs1)c1cccs1 (configuration not stated) , thanks.
Result: > 100 µM (inactive)

====

- Tested on: CCRF-CEM
- procedure-details: NCI tumour cell line growth inhibition, 48 h
Active and inactive are the calls of the source. No stated cut-off is given here; in the data, active = GI50 up to about 1.1 µM and inactive = higher.
Pick one and only one: 1 (active), -1 (inactive)

{"compound": "CC1(C)Cc2nc3c(cc2C(=O)C1/C=N/C(C#N)=C(\\N)C#N)C(=O)C(/C=N/C(C#N)=C(\\N)C#N)C(C)(C)C3 (stereo unspecified)", "tested-target": "CCRF-CEM", "qualitative-label": -1}

Task: Check the results log: what was the call for CC1OC(OC2C[C@](O)(C(=O)CF)Cc3c(O)c4c(c(O)c32)C(=O)c2ccccc2C4=O)CC(N)C1O (stereo partly specified) ?
Result: 1

Task: Also need Cc1nn(C(=O)Cc2ccccc2)c2c1C(c1ccccc1O)SC(=N)N2 (stereo unspecified) , thanks.
Result: -1

Task: Also need Cc1ccc(C)c(NC(=O)/C(=N\NC(N)=S)C(C#N)c2ccccc2)c1 (stereo unspecified) , thanks.
Result: -1

Task: Also need COC(OC)C(C)CC(=O)N(C)C (stereo unspecified) , thanks.
Result: -1

Task: Also need COC(=O)/C(=C(\C)NC(C)=O)c1c(C(=O)OC)[nH]c2ccccc12 , thanks.
Result: -1

Task: Also need Clc1c2ncccc2cc2nn[nH]c12 , thanks.
Result: -1

====

- Test system: U-251
- procedure-details: NCI tumour cell line growth inhibition, 48 h
Active and inactive are the calls of the source. Rule as the data show it: active = GI50 up to about 1.1 µM and inactive = higher.
Pick one and only one: TRUE = active, FALSE = inactive

Some solved cases for reference:
{"compound": "CCN(CCCl)c1cc(CN(C)C)cc(NC(=O)c2ccc(C(=O)Nc3cccc(CN(C)C)c3)cc2)c1", "qualitative-label": "TRUE"}
{"compound": "COc1ccc2c(c1)/C(=C\\c1c(Cl)nc3n1CCS3)C(=O)N2", "qualitative-label": "FALSE"}
{"compound": "NCCCNCCCCN1CCOC1=O", "qualitative-label": "FALSE"}
{"compound": "CCN(C)c1nc(N(C)CC)c2nc(N(C)CC)nc(N(C)CC)c2n1", "qualitative-label": "FALSE"}
{"compound": "O=C1/C(=C/c2cc3c(=O)c4ccccc4sc3s2)NC(=S)N1c1ccccc1", "qualitative-label": "FALSE"}

Task: Check the results log: what was the call for COC(OC)C(C)CC(=O)N(C)C (configuration not stated) ?
Result: FALSE

Task: Also need N=C(N)NS(=O)(=O)c1ccc(NC(=O)c2cccc3c(NNc4ccc(S(=O)(=O)N=C(N)N)cc4)c4ccccc4nc23)cc1 , thanks.
Result: FALSE

Task: Also need CC1CCC2c3c([nH]c4ccccc34)C3C(=O)N(C4CCCCC4)C(=O)C3C2C1 (configuration not stated) , thanks.
Result: FALSE

====

- Test system: BT-549
- procedure-details: NCI tumour cell line growth inhibition, 48 h
Active and inactive are the calls of the source. No stated cut-off is given here; in the data, active = GI50 up to about 1.1 µM and inactive = higher.
Listing of entries alongside the reported GI50.

{"compound": "NNc1[nH]c(=S)[nH]c1C(N)=O", "GI50": "> 100 µM (inactive)"}
{"compound": "[N-]=[N+]=Nc1ccc2c(c1)Sc1ccccc1N2CCCCN1CCN(Cc2ccc(C(=O)c3ccc(CSCC(N)C(=O)O)cc3)cc2)CC1 (stereo not given)", "GI50": "18 µM (inactive)"}
{"compound": "CCOC(=O)C1CCCc2sc(N)c(C#N)c21 (stereo not given)", "GI50": "55.5 µM (inactive)"}
{"compound": "O=C(O)CCc1nc2c(n1Cc1ccccc1)C(=O)c1ccccc1C2=O", "GI50": "> 100 µM (inactive)"}
{"compound": "CCC/C(Cl)=N/OC(=O)Nc1cc(C(F)(F)F)ccc1OC", "GI50": "15.5 µM (inactive)"}

Task: GET /values?readout=GI50&item= O=c1/c(=C/c2ccc(-c3ccc(Cl)cc3Cl)o2)sc2n1[C@@H](c1ccc3c(c1)OCO3)C=C(c1cc(F)c(Cl)cc1Cl)N=2
Result: 37.8 µM (inactive)

Task: Also need O=C1NI(C#Cc2ccccc2)c2ccccc21 , thanks.
Result: > 100 µM (inactive)

Task: Also need O=[N+]([O-])c1ccc(Cl)cc1N/N=C/c1cccs1 , thanks.
Result: > 100 µM (inactive)

Task: Also need COc1cc(C2c3cc4c(cc3OC(C)(O)C2C)OCO4)cc(OC)c1OC (stereo not given) , thanks.
Result: 5.42 µM (inactive)

Task: Also need COC1O[C@H]2[C@H]3[C@@H]1[C@@H](OS(=O)(=O)c1ccc(C)cc1)C(=O)N3C[C@H]2O (stereo not given in full) , thanks.
Result: > 100 µM (inactive)

Task: Also need Cc1cc2ncn(C3CCCO3)c2cc1C (stereo not given) , thanks.
Result: > 100 µM (inactive)

Task: Also need COc1ccc(N2C(=O)CC(=O)N(C(=O)COc3ccc(OCC(=O)N4C(=O)CC(=O)N(c5ccc(OC)cc5)C4=S)cc3)C2=S)cc1 , thanks.
Result: 50.1 µM (inactive)

Task: Also need O=C1NC(Cc2c[nH]c3ccccc23)C(=O)N2C(c3ccccc3)c3[nH]c4ccccc4c3C[C@@H]12 (stereo not given in full) , thanks.
Result: 21.1 µM (inactive)

Task: Also need c1ccc(/N=C(/Nc2ccccc2)N2CCCCC2)cc1 , thanks.
Result: > 100 µM (inactive)

Task: Also need COC(=O)/C(=C(\C)NC(C)=O)c1c(C(=O)OC)[nH]c2ccccc12 , thanks.
Result: > 100 µM (inactive)
